Data origin, for the record: patent US7632972B2

# Test system: A549/ATCC
# test-method-notes: NCI 60 cell line screen (SRB), Non-Small Cell Lung Cancer
# Type: cell-based, human
# setup-conditions: read-out: LC50 (the source's name)
recorded-endpoint: CC50

1) COc1cccc(CCNC(=O)CC(c2ccccc2)(c2ccccc2)c2ccccc2)c1 > 100 µM

* * *

# System: OVCAR-8
# test-method-notes: NCI 60 cell line screen (SRB), Ovarian Cancer
# Assay type: cell-based, human
# setup-conditions: OVCAR-8; read-out: LC50 (the source's name)
recorded-endpoint: CC50

1. COc1cccc(CCNC(=O)CC(c2ccccc2)(c2ccccc2)c2ccccc2)c1 > 100 µM

* * *

# Test system: HS 578T
# test-method-notes: NCI 60 cell line screen (SRB), Breast Cancer
# Type: cell-based, human
# setup-conditions: read-out: LC50 (the source's name)

compound	target-of-assay	CC50
COc1cccc(CCNC(=O)CC(c2ccccc2)(c2ccccc2)c2ccccc2)c1 [Compound Z3]	HS 578T	> 100 µM

* * *

# System: 786-0
# test-method-notes: NCI 60 cell line screen (SRB), Renal Cancer
# Assay type: cell-based, human
# setup-conditions: 786-0; read-out: LC50 (the source's name)
recorded-endpoint: CC50

1) COc1cccc(CCNC(=O)CC(c2ccccc2)(c2ccccc2)c2ccccc2)c1 > 100 µM

* * *

# Tested on: OVCAR-4
# test-method-notes: NCI 60 cell line screen (SRB), Ovarian Cancer
# Format: cell-based, human
# setup-conditions: OVCAR-4; read-out: LC50 (the source's name)
recorded-endpoint: CC50

1) COc1cccc(CCNC(=O)CC(c2ccccc2)(c2ccccc2)c2ccccc2)c1 > 100 µM

* * *

# Tested on: OVCAR-5
# test-method-notes: NCI 60 cell line screen (SRB), Ovarian Cancer
# Type: cell-based, human
# setup-conditions: OVCAR-5; read-out: LC50 (the source's name)
recorded-endpoint: CC50

1) COc1cccc(CCNC(=O)CC(c2ccccc2)(c2ccccc2)c2ccccc2)c1 > 100 µM

* * *

# System: RPMI-8226
# test-method-notes: NCI 60 cell line screen (SRB), Leukemia
# Assay type: cell-based, human
# setup-conditions: RPMI-8226; read-out: LC50 (the source's name)
recorded-endpoint: CC50

1) COc1cccc(CCNC(=O)CC(c2ccccc2)(c2ccccc2)c2ccccc2)c1 > 100 µM

* * *

# Tested on: K-562
# test-method-notes: NCI 60 cell line screen (SRB), Leukemia
# Assay type: cell-based, human
# setup-conditions: K-562; read-out: LC50 (the source's name)
recorded-endpoint: CC50

molecule	value
COc1cccc(CCNC(=O)CC(c2ccccc2)(c2ccccc2)c2ccccc2)c1 [Compound Z3]	> 100 µM

* * *

# Test system: SK-OV-3
# test-method-notes: NCI 60 cell line screen (SRB), Ovarian Cancer
# Format: cell-based, human
# setup-conditions: SK-OV-3; read-out: LC50 (the source's name)
recorded-endpoint: CC50

1. COc1cccc(CCNC(=O)CC(c2ccccc2)(c2ccccc2)c2ccccc2)c1 > 100 µM

* * *

# Test system: HOP-92
# test-method-notes: NCI 60 cell line screen (SRB), Non-Small Cell Lung Cancer
# Type: cell-based, human
# setup-conditions: HOP-92; read-out: LC50 (the source's name)
recorded-endpoint: CC50

1. COc1cccc(CCNC(=O)CC(c2ccccc2)(c2ccccc2)c2ccccc2)c1 > 100 µM

* * *

# Tested on: SF-268
# test-method-notes: NCI 60 cell line screen (SRB), CNS Cancer
# Assay type: cell-based, human
# setup-conditions: SF-268; read-out: LC50 (the source's name)
recorded-endpoint: CC50

1. COc1cccc(CCNC(=O)CC(c2ccccc2)(c2ccccc2)c2ccccc2)c1 > 100 µM
